This collection of values is drawn from ChEMBL document CHEMBL1149397.

target or system: Trace amine-associated receptor 1 (Mus musculus, UniProt Q923Y8)
Sequence (Q923Y8 whole entry): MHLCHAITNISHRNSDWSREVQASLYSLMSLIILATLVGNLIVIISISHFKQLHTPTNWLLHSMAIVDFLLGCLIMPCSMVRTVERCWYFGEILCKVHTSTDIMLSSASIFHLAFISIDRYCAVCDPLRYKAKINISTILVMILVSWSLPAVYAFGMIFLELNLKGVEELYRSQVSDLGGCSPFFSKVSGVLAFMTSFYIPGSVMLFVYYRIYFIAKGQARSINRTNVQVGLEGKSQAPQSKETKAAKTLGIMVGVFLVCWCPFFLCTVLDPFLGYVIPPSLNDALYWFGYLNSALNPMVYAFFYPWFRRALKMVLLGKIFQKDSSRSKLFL
protocol: Activity at mouse TAAR1 by measuring cAMP accumulation in HEK293 cells
measurement label: EC50 (nM)
The reply should be a number in nM, with the unit left off.

Example entries begin here.
# molecular string, measurement label, uom, reported measurement
records = [
    ("NCCc1ccc(Oc2ccccc2)c(I)c1", "EC50", "nM", 35),
    ("CNCCc1ccc(OCc2ccccc2)c(I)c1", "EC50", "nM", 106),
]

Pending compound:
Query string: Give EC50 (Trace amine-associated receptor 1 (Mus musculus, UniProt Q923Y8)) of the following compound: `COc1cccc(COc2ccc(CCN)cc2)c1`
Result string: 194

====

Quick list: EC50 per entry.
target or system: Trace amine-associated receptor 1 (Mus musculus)
protocol: Activity at mouse TAAR1 by measuring cAMP accumulation in HEK293 cells

Below are worked cases with known answers.
# molecular string, EC50
measured = [
    ("NCCc1cc(I)c(Oc2cc(I)c(O)c(I)c2)c(I)c1", "> 1 µM"),
    ("OCCc1ccc(Oc2ccc(O)cc2)c(I)c1", "> 1 µM"),
]

Query string: What value of EC50 on Trace amine-associated receptor 1 (Mus musculus) does `CCCNCCc1ccc(OCc2ccccc2)cc1` have?
Result string: > 1 µM

Query string: Check `CCCCNCCc1ccc(OCc2ccccc2)cc1` too.
Result string: > 1 µM
